Ref: patent US20260365670A1

system under test: EGFR L858R (Homo sapiens, UniProt P00533, L858R)
Construct: purchased Carna Bio
Sequence (P00533 25-1210 L858R): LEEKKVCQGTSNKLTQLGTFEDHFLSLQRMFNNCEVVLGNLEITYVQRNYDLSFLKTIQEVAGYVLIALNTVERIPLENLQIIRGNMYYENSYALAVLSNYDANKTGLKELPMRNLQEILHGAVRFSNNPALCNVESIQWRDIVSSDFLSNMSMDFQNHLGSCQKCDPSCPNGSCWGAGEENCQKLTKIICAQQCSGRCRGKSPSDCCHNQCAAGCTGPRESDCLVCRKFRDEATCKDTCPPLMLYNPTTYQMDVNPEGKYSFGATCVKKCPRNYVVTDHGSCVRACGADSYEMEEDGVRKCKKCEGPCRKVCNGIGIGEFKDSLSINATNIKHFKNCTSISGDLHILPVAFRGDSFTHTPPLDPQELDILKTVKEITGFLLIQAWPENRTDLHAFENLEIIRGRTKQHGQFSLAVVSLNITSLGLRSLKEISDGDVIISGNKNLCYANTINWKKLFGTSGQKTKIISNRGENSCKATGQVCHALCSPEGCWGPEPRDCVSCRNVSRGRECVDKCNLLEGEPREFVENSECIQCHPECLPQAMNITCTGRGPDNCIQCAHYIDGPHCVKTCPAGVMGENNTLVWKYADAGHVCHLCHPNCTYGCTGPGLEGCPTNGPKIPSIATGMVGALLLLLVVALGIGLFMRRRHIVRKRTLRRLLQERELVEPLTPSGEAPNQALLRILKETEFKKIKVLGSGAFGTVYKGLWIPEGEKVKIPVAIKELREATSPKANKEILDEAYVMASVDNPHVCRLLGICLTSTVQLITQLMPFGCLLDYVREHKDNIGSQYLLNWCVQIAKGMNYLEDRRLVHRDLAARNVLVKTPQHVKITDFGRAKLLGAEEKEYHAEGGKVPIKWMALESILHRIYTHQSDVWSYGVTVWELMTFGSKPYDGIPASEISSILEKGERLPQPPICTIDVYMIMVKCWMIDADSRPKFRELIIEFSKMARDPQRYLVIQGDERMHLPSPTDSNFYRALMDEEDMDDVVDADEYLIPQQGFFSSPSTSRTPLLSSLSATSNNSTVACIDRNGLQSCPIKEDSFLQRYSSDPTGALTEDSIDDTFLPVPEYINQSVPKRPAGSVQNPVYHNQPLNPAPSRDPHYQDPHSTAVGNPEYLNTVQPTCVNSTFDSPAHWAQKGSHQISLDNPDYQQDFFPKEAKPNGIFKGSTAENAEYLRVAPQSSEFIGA
assay comment: Inhibition of EGFR L858R biochemical enzymatic activity (HTRF)
test conditions: 1 mM ATP, 1 h, room temperature, read-out: IC50 (nM) @L858R
# IC50 annotations
Just the number in nM, nothing appended.

A selection of reference data follows.
[
  {
    "compound": "C[C@@H]1CCCOc2c(cnn2C)-c2cc(cn(C)c2=O)C(=O)Nc2nc3ccc(N4CCNCC4)cc3n2C1",
    "units text": "nM",
    "observed result": 16
  },
  {
    "compound": "CN(C)CCCN(C)c1ccc2nc3n(c2c1)C12CCC(CN(CCOc4c(cnn4C)-c4cc(cn(C)c4=O)C(=O)N3)C1)C2 (single isomer, unassigned) [Example A89B]",
    "units text": "nM",
    "observed result": 16
  }
]

Next, consider the following compound.
Lab note: measured IC50 of CC(C)N1CCN(c2ccc3nc4n(c3c2)C23CCC(CN(CCOc5c(cnn5C)-c5cc(cn(C)c5=O)C(=O)N4)C2)C3)CC1 (single isomer, unassigned) [Example A108B] was 1.9

----------
The entries below are paired with their reported pIC50.
system under test: EGFR wild type (Homo sapiens, UniProt P00533)
Construct: purchased Carna Bio
Sequence (P00533 25-1210): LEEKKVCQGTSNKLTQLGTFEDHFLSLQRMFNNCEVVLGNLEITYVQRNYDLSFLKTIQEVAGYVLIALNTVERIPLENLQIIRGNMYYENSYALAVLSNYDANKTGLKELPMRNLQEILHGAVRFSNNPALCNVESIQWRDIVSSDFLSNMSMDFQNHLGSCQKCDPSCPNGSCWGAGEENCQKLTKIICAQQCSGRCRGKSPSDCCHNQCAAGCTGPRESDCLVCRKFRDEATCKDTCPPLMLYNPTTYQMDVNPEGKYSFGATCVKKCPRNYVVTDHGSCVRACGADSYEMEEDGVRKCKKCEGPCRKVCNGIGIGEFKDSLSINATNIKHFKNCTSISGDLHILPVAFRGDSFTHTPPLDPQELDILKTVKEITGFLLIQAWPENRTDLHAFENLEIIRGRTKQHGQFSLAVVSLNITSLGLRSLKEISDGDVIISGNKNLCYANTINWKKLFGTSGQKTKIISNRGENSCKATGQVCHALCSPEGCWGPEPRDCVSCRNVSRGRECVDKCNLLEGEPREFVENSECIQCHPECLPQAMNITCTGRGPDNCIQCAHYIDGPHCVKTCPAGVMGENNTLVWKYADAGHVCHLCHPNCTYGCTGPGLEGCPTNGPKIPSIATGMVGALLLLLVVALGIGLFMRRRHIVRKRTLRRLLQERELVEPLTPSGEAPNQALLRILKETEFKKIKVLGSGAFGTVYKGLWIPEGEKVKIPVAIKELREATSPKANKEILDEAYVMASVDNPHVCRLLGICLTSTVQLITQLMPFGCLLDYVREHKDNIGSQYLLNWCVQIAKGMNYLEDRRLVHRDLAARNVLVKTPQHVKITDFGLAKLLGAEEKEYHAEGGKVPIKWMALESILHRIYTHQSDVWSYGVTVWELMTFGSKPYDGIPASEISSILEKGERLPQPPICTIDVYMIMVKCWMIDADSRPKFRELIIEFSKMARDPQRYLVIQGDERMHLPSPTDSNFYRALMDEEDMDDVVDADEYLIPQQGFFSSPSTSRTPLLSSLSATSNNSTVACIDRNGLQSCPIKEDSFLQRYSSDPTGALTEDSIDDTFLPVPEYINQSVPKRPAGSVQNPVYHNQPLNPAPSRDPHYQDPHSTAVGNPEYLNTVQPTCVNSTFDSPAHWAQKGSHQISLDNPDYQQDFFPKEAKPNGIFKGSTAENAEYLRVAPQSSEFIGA
assay comment: Inhibition of EGFR wild type biochemical enzymatic activity (HTRF)
test conditions: EGFR wild type, 1 mM ATP, 1 h at room temperature, read-out: IC50 @WT
pIC50: −log10 of the molar value.

[
  {
    "compound": "Cc1cc2cc(n1)-c1cnn(C)c1OCCN1CC3CCC(CC3)(C1)n1c(nc3ccc(N4CCC5(CC4)CCN5C)cc31)NC2=O",
    "pIC50": "< 5.30"
  }
]

Record Cc1cc2cc(n1)-c1cnn(C)c1OCCN1CC3CCC(C3)(C1)n1c(nc3ccc(N4CCC5(CCN(C)C5)CC4)cc31)NC2=O (single isomer, unassigned) [Example B52B] . Reported pIC50: 8.08

# pIC50 (compound: Cc1cc2cc(n1)-c1cnn(C)c1OCCN1CC3CCC(C3)(C1)n1c(nc3ccc(N4CCC5(CCN(C)C5)CC4)cc31)NC2=O (single isomer, unassigned) [Example B52A] ) is < 5.30

----------
# Lookup of reported IC50 keyed by entry
system under test: EGFR[T790M/C797S/d746-750] (Homo sapiens, UniProt P00533, C797S/DEL746-750/T790M)
Construct: purchased Carna Bio
Sequence (P00533 with tags, fused parts or gaps DEL746-750/T790M/C797S limits assumed): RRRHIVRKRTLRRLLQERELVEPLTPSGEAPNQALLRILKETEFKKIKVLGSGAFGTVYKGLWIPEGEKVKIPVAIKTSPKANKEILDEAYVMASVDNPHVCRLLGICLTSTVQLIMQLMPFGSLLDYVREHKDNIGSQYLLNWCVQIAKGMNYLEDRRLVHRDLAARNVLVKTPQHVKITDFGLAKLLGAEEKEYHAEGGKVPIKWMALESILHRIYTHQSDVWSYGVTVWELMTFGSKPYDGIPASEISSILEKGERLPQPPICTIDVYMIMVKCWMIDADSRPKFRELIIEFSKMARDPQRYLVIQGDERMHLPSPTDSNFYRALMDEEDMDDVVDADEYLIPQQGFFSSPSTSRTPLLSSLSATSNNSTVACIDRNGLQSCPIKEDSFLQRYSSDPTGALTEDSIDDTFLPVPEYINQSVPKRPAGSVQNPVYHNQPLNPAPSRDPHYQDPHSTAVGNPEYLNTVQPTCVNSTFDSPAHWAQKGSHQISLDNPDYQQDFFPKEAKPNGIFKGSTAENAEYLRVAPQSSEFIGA
assay comment: Inhibition of EGFR[T790M/C797S/d746-750] biochemical enzymatic activity (HTRF)
test conditions: EGFR T790M-C797S-Del19, 1 mM ATP, 1 h, room temperature, read-out: IC50 (nM) @T790M - C797S - Del19

Reference set, count: 4
[
  {
    "compound": "C[C@@H]1CCCOc2c(cnn2C)-c2cc(cn(C)c2=O)C(=O)Nc2nc3ccc(N4CCC(N(C)C)C(F)C4)cc3n2C1 (stereo partly drawn)",
    "IC50": "1.7 nM"
  },
  {
    "compound": "CN1CC2CN(c3ccc4nc5n(c4c3)C34CCC(CN(CCOc6c(cnn6C)-c6cc(cn(C)c6=O)C(=O)N5)C3)C4)CC2C1 (single isomer, unassigned) [Example A68B]",
    "IC50": "1.8 nM"
  },
  {
    "compound": "CN(C)[C@H]1CCN(c2ccc3nc4n(c3c2)C23CCC(CC2)CN(CCOc2c(cnn2C)-c2cc(cn(C)c2=O)C(=O)N4)C3)C1",
    "IC50": "15 nM"
  },
  {
    "compound": "CN(C)CCCN(C)c1ccc2nc3n(c2c1)C12CCC(CN(CCOc4c(cnn4C)-c4cc(cn(C)c4=O)C(=O)N3)C1)C2 (single isomer, unassigned) [Example A89B]",
    "IC50": "4 nM"
  }
]

For reference, reported IC50 for C[C@@H]1CCCOc2c(cnn2C)-c2cc(cn(C)c2=O)C(=O)Nc2nc3ccc(N4CCOCC4)cc3n2C1 stands at 5.6 nM

Sure, the documented IC50 for C[C@@H]1CCCOc2c(cnn2C)-c2cc(cn(C)c2=O)C(=O)Nc2nc3ccc(N4CC5(CCCN5C)C4)cc3n2C1 is 3.1 nM

----------
system under test: EGFR Exon19Del/T790M (Homo sapiens, UniProt P00533, DEL746-750/T790M)
Construct: purchased Carna Bio
Sequence (P00533 with tags, fused parts or gaps DEL746-750/T790M limits assumed): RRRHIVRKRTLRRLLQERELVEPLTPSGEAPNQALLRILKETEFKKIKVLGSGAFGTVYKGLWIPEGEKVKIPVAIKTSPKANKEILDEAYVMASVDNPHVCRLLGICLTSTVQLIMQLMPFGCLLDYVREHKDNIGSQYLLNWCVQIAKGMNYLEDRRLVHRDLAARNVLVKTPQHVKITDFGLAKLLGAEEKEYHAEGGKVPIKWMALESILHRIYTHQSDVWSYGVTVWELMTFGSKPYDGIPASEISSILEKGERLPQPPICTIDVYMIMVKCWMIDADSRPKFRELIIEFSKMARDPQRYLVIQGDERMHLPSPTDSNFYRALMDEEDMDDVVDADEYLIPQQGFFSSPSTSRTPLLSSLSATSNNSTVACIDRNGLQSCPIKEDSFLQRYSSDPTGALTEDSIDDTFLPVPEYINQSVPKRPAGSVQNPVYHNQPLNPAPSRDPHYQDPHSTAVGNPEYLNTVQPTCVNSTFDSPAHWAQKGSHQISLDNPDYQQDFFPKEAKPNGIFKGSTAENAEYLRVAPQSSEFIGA
assay comment: Inhibition of EGFR Exon19Del/T790M biochemical enzymatic activity (HTRF)
test conditions: EGFR Del19-T790M, 1 mM ATP, 1 h, room temperature, read-out: IC50 (nM) @Del19-T790M
assay metric: log10 of IC50 (log10 of the value in nM)
Would you kindly interpret these values as log10 of IC50 expressed in nM?

Take a look at these entries with their results.
[
  {
    "compound": "Cc1cc2cc(n1)-c1cnn(C)c1OCCN1CC3CCC(CC3)(C1)n1c(nc3ccc(N4CCOCC4)cc31)NC2=O",
    "log10 of IC50": 1.11
  },
  {
    "compound": "CN(C)[C@H]1CCN(c2ccc3nc4n(c3c2)C23CCC(CN(CCOc5c(cnn5C)-c5cc(cn(C)c5=O)C(=O)N4)C2)C3)C1 (single isomer, unassigned) [Example A66B]",
    "log10 of IC50": 0.45
  },
  {
    "compound": "Cn1ncc2c1OCCN1CCCCC(C)(C1)n1c(nc3ccc(N4CCOCC4)cc31)NC(=O)c1cc-2c(=O)n(C)c1 (centres unmarked)",
    "log10 of IC50": 2.88
  }
]

Per the reported EGFR Exon19Del/T790M (Homo sapiens, UniProt P00533, DEL746-750/T790M) data, CN1CCC12CCN(c1ccc3nc4n(c3c1)C13CCC(CN(CCOc5c(cnn5C)-c5cc(cn(C)c5=O)C(=O)N4)C1)C3)CC2 (single isomer, unassigned) [Example A67B] has log10 of IC50 of 0.11

Item CN1CCN(c2ccc3nc4n(c3c2)CCN(CC(F)(F)F)CCOc2c(cnn2C2CC2)-c2cc(cn(C)c2=O)C(=O)N4)CC1 was tested on EGFR Exon19Del/T790M (Homo sapiens, UniProt P00533, DEL746-750/T790M); the reported log10 of IC50 is 0.68

For the compound Cn1ncc2c1OCCN1CC3CCC(C3)(C1)n1c(nc3ccc(N4CCN(C5CC5)CC4)cc31)NC(=O)c1cc-2c(=O)n(C)c1 (single isomer, unassigned) [Example A83B] , the measured log10 of IC50 on EGFR Exon19Del/T790M (Homo sapiens, UniProt P00533, DEL746-750/T790M) was 0.43

The compound C[C@@H]1CCCOc2c(cnn2C)-c2cc(cn(C)c2=O)C(=O)Nc2nc3ccc4c(c3n2C1)CCN(C)C4 on EGFR Exon19Del/T790M (Homo sapiens, UniProt P00533, DEL746-750/T790M): log10 of IC50 was 0.26

----------
Test system: Ba/F3 cells expressing EGFR mutations
assay comment: Cell proliferation assay, Ba/F3 cells expressing EGFR mutations (CellTiter-Glo, 72 hours)
Assay type: cell-based
test conditions: BaF3 cells, EGFR DEL19-T790-C797S, CellTiter-Glo, read-out: DEL19-T790-C797S/BaF3 GI50
Listing: GI50 of selected molecules
Write the value in nM as a bare number.

[
  {
    "molecule": "Cn1ncc2c1OCCN1CC3CCC(C3)(C1)n1c(nc3ccc(N4CC(N5CCOCC5)C4)cc31)NC(=O)c1cc-2c(=O)n(C)c1 (single isomer, unassigned) [Example A69B]",
    "assay metric": "GI50",
    "observed result": 1.3
  },
  {
    "molecule": "CN1CCOC2(C1)CN(c1ccc3nc4n(c3c1)C13CCC(CN(CCOc5c(cnn5C)-c5cc(cn(C)c5=O)C(=O)N4)C1)C3)C2 (single isomer, unassigned) [Example A86A]",
    "assay metric": "GI50",
    "observed result": 120
  }
]

What the record says about Cn1ncc2c1OCCN1CC3CCC(C3)(C1)n1c(nc3ccc(N4CCN(C5COC5)CC4)cc31)NC(=O)c1cc-2c(=O)n(C)c1 (single isomer, unassigned) [Example A71B] : GI50 is 2

GI50 for CN1CCN(C2CCN(c3ccc4nc5n(c4c3)C34CCC(CN(CCOc6c(cnn6C)-c6cc(cn(C)c6=O)C(=O)N5)C3)C4)CC2)CC1 (single isomer, unassigned) [Example A106A] is 322

In plain terms, COCCN(C)c1ccc2nc3n(c2c1)C12CCC(CN(CCOc4c(cnn4C)-c4cc(cn(C)c4=O)C(=O)N3)C1)C2 (single isomer, unassigned) [Example A90A] has a documented GI50 of 393
